Documented inhibition at 110 µM across a set of molecules
- System: C. elegans
- test description: microbe, parasite or virus in culture
- experimental setup: Caenorhabditis elegans, 0 h, read-out: Percentage of motility inhibition 0 h, Table S2, C. elegans SS assay, 110 μM, 0 h, averages of 4 data points

molecule	assay system	unit	inhibition at 110 µM
CC(C)=CCC[C@](C)(O[C@@H]1O[C@H](CO[C@@H]2O[C@H](CO)[C@@H](O)[C@H](O)[C@H]2O)[C@@H](O)[C@H](O)[C@H]1O)[C@H]1CC[C@]2(C)[C@@H]1[C@H](O)C[C@@H]1[C@@]3(C)CC[C@H](O[C@@H]4O[C@H](CO)[C@@H](O)[C@H](O)[C@H]4O)C(C)(C)[C@@H]3CC[C@]12C [Gypenoside XVII]	C. elegans	%	4
C[C@H]1[C@H](C)CC[C@]2(C(=O)O)CC[C@]3(C)C(=CC[C@@H]4[C@@]5(C)CC[C@H](O)C(C)(C)[C@@H]5CC[C@]43C)[C@H]12	C. elegans	%	0
OCc1c[nH]c2ccccc12	C. elegans	%	0
CC(C)C12CCC(C)(CC1)O2	C. elegans	%	21
COc1c(O[C@@H]2O[C@H](CO)[C@@H](O)[C@H](O)[C@H]2O)cc2occ(-c3ccc(O)cc3)c(=O)c2c1O	C. elegans	%	1
C=CC1=C(C(=O)O)N2C(=O)[C@@H](NC(=O)/C(=N\OCC(=O)O)c3csc(N)n3)[C@H]2SC1	C. elegans	%	38
